Source listed as paper PMC13185819.

test system: P. aeruginosa 116; format: cell-based
Residues, ends and D or L forms follow the SMILES beside them.
Would you kindly list MIC (μg/mL) P. aeruginosa 116 for each of these compounds?
Return type: number; implicit unit µg/mL.

**Q:** # value lookup — system P. aeruginosa 116, readout MIC (μg/mL) P. aeruginosa 116, item CC(C)[C@H](N)C(=O)N[C@@H](CCCCN)C(=O)N[C@H](C(=O)N[C@@H](Cc1ccccc1)C(=O)N[C@@H](CCCNC(=N)N)C(=O)N[C@@H](Cc1ccccc1)C(=O)N[C@@H](Cc1ccc(O)cc1)C(=O)N[C@@H](Cc1c[nH]c2ccccc12)C(=O)N[C@@H](CCCCN)C(=O)N[C@@H](CCCNC(=N)N)C(=O)N[C@@H](CCCCN)C(=O)N[C@@H](CCC(N)=O)C(=O)N[C@@H](CCCNC(=N)N)C(=O)N[C@@H](Cc1ccccc1)C(N)=O)C(C)C [QLX-3DV-12] (H-VKVFRFYWKRKQRF-NH2)
**A:** 8

**Q:** # value lookup — system P. aeruginosa 116, readout MIC (μg/mL) P. aeruginosa 116, item CC[C@H](C)[C@H](NC(=O)[C@H](CCCCN)NC(=O)[C@H](Cc1c[nH]c2ccccc12)NC(=O)[C@@H](N)CCCCN)C(=O)N[C@@H](CCCCN)C(=O)N[C@@H](Cc1c[nH]c2ccccc12)C(=O)N1CCC[C@H]1C(=O)N[C@@H](CO)C(=O)N[C@@H](CCCNC(=N)N)C(=O)N[C@@H](Cc1c[nH]c2ccccc12)C(=O)N[C@@H](Cc1ccccc1)C(=O)N[C@H](C(=O)N[C@@H](CCCCN)C(=O)N[C@@H](CC(C)C)C(N)=O)[C@@H](C)O [QLX-3DV-4] (H-KWKIKWPSRWFTKL-NH2)
**A:** 32

**Q:** # value lookup — system P. aeruginosa 116, readout MIC (μg/mL) P. aeruginosa 116, item CC[C@H](C)[C@H](NC(=O)[C@H](CCCCN)NC(=O)[C@H](CCCNC(=N)N)NC(=O)[C@@H](N)CCCCN)C(=O)N[C@@H](CCCCN)C(=O)N[C@@H](Cc1c[nH]c2ccccc12)C(=O)N[C@@H](Cc1c[nH]c2ccccc12)C(=O)N[C@H](C(=O)N[C@@H](CCCNC(=N)N)C(=O)N[C@@H](Cc1c[nH]c2ccccc12)C(=O)N[C@H](C(=O)N[C@H](C(=O)N[C@@H](CCCCN)C(=O)N[C@@H](CC(C)C)C(N)=O)[C@@H](C)O)[C@@H](C)CC)C(C)C [QLX-3DV-8] (H-KRKIKWWVRWITKL-NH2)
**A:** 8

**Q:** # value lookup — system P. aeruginosa 116, readout MIC (μg/mL) P. aeruginosa 116, item CC[C@H](C)[C@H](NC(=O)[C@H](CCCCN)NC(=O)[C@H](Cc1c[nH]c2ccccc12)NC(=O)[C@@H](N)CCCCN)C(=O)N[C@@H](CCCCN)C(=O)N[C@@H](Cc1c[nH]c2ccccc12)C(=O)N[C@@H](Cc1c[nH]cn1)C(=O)N[C@H](C(=O)N[C@@H](CCCNC(=N)N)C(=O)N[C@@H](Cc1c[nH]c2ccccc12)C(=O)N[C@@H](Cc1ccccc1)C(=O)N[C@@H](CCCNC(=N)N)C(=O)N[C@H](C(=O)N[C@@H](CC(C)C)C(N)=O)C(C)C)C(C)C [QLX-3DV-10] (H-KWKIKWHVRWFRVL-NH2)
**A:** 8

---

tested on: P. aeruginosa 116; type: cell-based
Residues, ends and D or L forms follow the SMILES beside them.
QUANTITY: MIC (μg/mL) P. aeruginosa 116 (µg/mL)
Return type: number; implicit unit µg/mL.

**Q:** // query MIC (μg/mL) P. aeruginosa 116 value for entry CC[C@H](C)[C@H](NC(=O)[C@H](CCCCN)NC(=O)[C@H](Cc1c[nH]c2ccccc12)NC(=O)[C@@H](N)CCCCN)C(=O)N[C@@H](CCCCN)C(=O)N[C@@H](CCCNC(=N)N)C(=O)N1CCC[C@H]1C(=O)N[C@H](C(=O)N[C@@H](CCCCN)C(=O)N[C@@H](Cc1c[nH]c2ccccc12)C(=O)N[C@@H](Cc1ccccc1)C(=O)N[C@H](C(=O)N[C@@H](CCSC)C(=O)N[C@@H](CC(C)C)C(N)=O)[C@@H](C)O)C(C)C [QLX-3DV-5] (H-KWKIKRPVKWFTML-NH2)
**A:** 128

---

Would you kindly list MIC (μg/mL) S. aureus CICC25138 for each of these compounds?
tested on: S. aureus CICC25138; assay type: cell-based
Residues, ends and D or L forms follow the SMILES beside them.
Return type: number; implicit unit µg/mL.

**Q:** # value lookup — system S. aureus CICC25138, readout MIC (μg/mL) S. aureus CICC25138, item CC[C@H](C)[C@H](NC(=O)[C@H](CCCCN)NC(=O)[C@H](Cc1c[nH]c2ccccc12)NC(=O)[C@@H](N)CCCCN)C(=O)N[C@@H](CCCCN)C(=O)N[C@@H](Cc1c[nH]c2ccccc12)C(=O)N1CCC[C@H]1C(=O)N[C@@H](CO)C(=O)N[C@@H](CC(N)=O)C(=O)N[C@@H](Cc1c[nH]c2ccccc12)C(=O)N[C@@H](Cc1ccccc1)C(=O)N[C@H](C(=O)N[C@@H](CCCCN)C(=O)N[C@@H](CC(C)C)C(N)=O)[C@@H](C)O [QLX-3DV-3] (H-KWKIKWPSNWFTKL-NH2)
**A:** 32

**Q:** # value lookup — system S. aureus CICC25138, readout MIC (μg/mL) S. aureus CICC25138, item CC[C@H](C)[C@H](NC(=O)[C@H](CCCCN)NC(=O)[C@H](CCCNC(=N)N)NC(=O)[C@@H](N)CCCCN)C(=O)N[C@@H](CCCCN)C(=O)N[C@@H](Cc1c[nH]c2ccccc12)C(=O)N[C@@H](CCCCN)C(=O)N[C@H](C(=O)N[C@@H](CCCNC(=N)N)C(=O)N[C@@H](Cc1c[nH]c2ccccc12)C(=O)N[C@@H](Cc1ccccc1)C(=O)N[C@H](C(=O)N[C@@H](Cc1ccc(O)cc1)C(=O)N[C@@H](CC(C)C)C(N)=O)[C@@H](C)O)C(C)C [QLX-3DV-7] (H-KRKIKWKVRWFTYL-NH2)
**A:** 16

---

system: S. aureus CICC25138; assay type: cell-based
Residues, ends and D or L forms follow the SMILES beside them.
QUANTITY: MIC (μg/mL) S. aureus CICC25138 (µg/mL)
Return type: number; implicit unit µg/mL.

**Q:** // query MIC (μg/mL) S. aureus CICC25138 value for entry CC[C@H](C)[C@H](NC(=O)[C@H](CCCCN)NC(=O)[C@H](Cc1c[nH]c2ccccc12)NC(=O)[C@@H](N)CCCCN)C(=O)N[C@@H](CCCCN)C(=O)N[C@@H](Cc1c[nH]c2ccccc12)C(=O)N[C@@H](Cc1c[nH]cn1)C(=O)N[C@H](C(=O)N[C@@H](CCCNC(=N)N)C(=O)N[C@@H](Cc1c[nH]c2ccccc12)C(=O)N[C@@H](Cc1ccccc1)C(=O)N[C@@H](CCCNC(=N)N)C(=O)N[C@H](C(=O)N[C@@H](CC(C)C)C(N)=O)C(C)C)C(C)C [QLX-3DV-10] (H-KWKIKWHVRWFRVL-NH2)
**A:** 32

**Q:** // query MIC (μg/mL) S. aureus CICC25138 value for entry CC[C@H](C)[C@H](NC(=O)[C@H](CCCCN)NC(=O)[C@H](Cc1c[nH]c2ccccc12)NC(=O)[C@@H](N)CCCCN)C(=O)N[C@@H](CCCCN)C(=O)N[C@@H](Cc1c[nH]c2ccccc12)C(=O)N[C@@H](CCCNC(=N)N)C(=O)N[C@H](C(=O)N[C@@H](CCCNC(=N)N)C(=O)N[C@@H](Cc1c[nH]c2ccccc12)C(=O)N[C@@H](Cc1ccccc1)C(=O)N[C@@H](CCCCN)C(=O)N[C@@H](CC(C)C)C(=O)N[C@@H](CC(C)C)C(N)=O)C(C)C [QLX-3DV-9] (H-KWKIKWRVRWFKLL-NH2)
**A:** 8

**Q:** // query MIC (μg/mL) S. aureus CICC25138 value for entry CC[C@H](C)[C@H](NC(=O)[C@H](CCCNC(=N)N)NC(=O)[C@H](Cc1c[nH]c2ccccc12)NC(=O)[C@H](CCCCN)NC(=O)[C@H](CCC(N)=O)NC(=O)[C@H](CCCNC(=N)N)NC(=O)[C@@H](N)CCCNC(=N)N)C(=O)N[C@@H](CC(C)C)C(=O)N[C@@H](C)C(=O)N[C@@H](CC(C)C)C(=O)N[C@@H](CC(N)=O)C(=O)N[C@H](C(=O)N[C@@H](Cc1c[nH]c2ccccc12)C(=O)N[C@@H](CCCCN)C(N)=O)[C@@H](C)CC [QLX-3DV-11] (H-RRQKWRILALNIWK-NH2)
**A:** 16

**Q:** // query MIC (μg/mL) S. aureus CICC25138 value for entry CC[C@H](C)[C@H](NC(=O)[C@H](CCCCN)NC(=O)[C@H](Cc1c[nH]c2ccccc12)NC(=O)[C@@H](N)CCCCN)C(=O)N[C@@H](CCCCN)C(=O)N[C@@H](Cc1c[nH]c2ccccc12)C(=O)N1CCC[C@H]1C(=O)N[C@@H](CO)C(=O)N[C@@H](CCCNC(=N)N)C(=O)N[C@@H](Cc1c[nH]c2ccccc12)C(=O)N[C@@H](Cc1ccccc1)C(=O)N[C@H](C(=O)N[C@@H](CCCCN)C(=O)N[C@@H](CC(C)C)C(N)=O)[C@@H](C)O [QLX-3DV-4] (H-KWKIKWPSRWFTKL-NH2)
**A:** 16
